pKi: −log10 of the molar value.
Beta-2 adrenergic receptor (Rattus norvegicus) pKi, compiled from various sources.
Sequence (P10608 whole entry): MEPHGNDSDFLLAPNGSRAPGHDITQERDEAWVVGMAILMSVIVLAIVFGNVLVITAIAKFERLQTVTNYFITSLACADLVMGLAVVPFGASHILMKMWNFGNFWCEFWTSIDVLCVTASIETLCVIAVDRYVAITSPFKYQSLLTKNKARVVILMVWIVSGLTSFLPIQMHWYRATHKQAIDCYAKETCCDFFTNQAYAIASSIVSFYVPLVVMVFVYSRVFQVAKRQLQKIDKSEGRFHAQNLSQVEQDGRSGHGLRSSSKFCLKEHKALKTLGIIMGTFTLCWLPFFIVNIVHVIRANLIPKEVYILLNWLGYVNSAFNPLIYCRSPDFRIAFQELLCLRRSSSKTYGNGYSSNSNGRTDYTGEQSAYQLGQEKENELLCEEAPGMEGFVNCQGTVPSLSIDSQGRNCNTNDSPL

Use the examples below as a reference point.
Challenge: Name the recorded pKi of "N[C@H](CCS(=O)O)C(=O)O" , assay system Beta-2 adrenergic receptor (Rattus norvegicus).
Response given: < 5.00

Challenge: Give pKi for this entry on Beta-2 adrenergic receptor (Rattus norvegicus): "CSCC[C@@H](N)C(=O)O"
Response given: < 5.00

Challenge: Look up Beta-2 adrenergic receptor (Rattus norvegicus) data: pKi of "NCCc1ccc(O)c(O)c1" , then report it.
Response given: 4.30

Challenge: Check Beta-2 adrenergic receptor (Rattus norvegicus) data and give pKi for NC(CSSCC(N)C(=O)O)C(=O)O (configuration not stated) .
Response given: < 5.00

Challenge: Please report pKi with Beta-2 adrenergic receptor (Rattus norvegicus) for item "CCN1CCN(c2cc(-c3ccc(F)cc3)c3c(n2)CCCCCC3)CC1" .
Response given: < 5.00

Challenge: Report pKi on Beta-2 adrenergic receptor (Rattus norvegicus) for this entry: CCN1CCCC1CNC(=O)c1cc(S(=O)(=O)CC)c(N)cc1OC (configuration not stated)
Response given: < 5.00

Challenge: GET pKi where system = Beta-2 adrenergic receptor (Rattus norvegicus) and item = "COc1ccccc1N1CCN(CCN(C(=O)C2CCCCC2)c2ccccn2)CC1"
Response given: 6.00

Challenge: # assay system Beta-2 adrenergic receptor (Rattus norvegicus): give pKi of CN(C)C1CCc2[nH]c3ccc(NC(=O)c4ccc(F)cc4)cc3c2C1 (configuration not stated)
Response given: < 5.00

Challenge: // fetch pKi; item: O=c1cc(O)cc2oc(-c3ccc(O)c(O)c3)c(OC3OC(CO)C(O)C(O)C3O)c(O)c1-2 (configuration not stated) ; system: Beta-2 adrenergic receptor (Rattus norvegicus)
Response given: < 5.00

Challenge: With Beta-2 adrenergic receptor (Rattus norvegicus) as the test system, provide measured pKi for this compound: "COc1cc(OC)c(C(=O)CCCCN2CCC3(CC2)NC(=O)NC3=O)cc1NS(=O)(=O)c1ccc(C(F)(F)F)cc1"
Response given: < 5.00

Next:
Challenge: Identify measured pKi obtained with Beta-2 adrenergic receptor (Rattus norvegicus) for "CN[C@@H]1CC[C@@H](c2ccc(Cl)c(Cl)c2)c2ccccc21" .
Response given: < 5.00

Challenge: Give the observed pKi of CC(C)CNCC(O)COc1cccc2ccccc12 (configuration not stated) for Beta-2 adrenergic receptor (Rattus norvegicus).
Response given: 8.61

Challenge: Tell me pKi of "O=c1cc(O)cc2oc(-c3ccc(O)c(-c4c(O)cc(O)c5c(=O)cc(-c6ccc(O)cc6)oc45)c3)cc(O)c1-2" when tested on Beta-2 adrenergic receptor (Rattus norvegicus).
Response given: < 5.00

Challenge: Answer with pKi of "COc1cc(N)c(Cl)cc1C(=O)CCC1CCN(CCNS(C)(=O)=O)CC1" measured for Beta-2 adrenergic receptor (Rattus norvegicus).
Response given: < 5.00

Challenge: Recall the reported pKi of NC(=O)c1ccc(F)c2c1CC(N(C1CCC1)C1CCC1)CO2 (configuration not stated) on Beta-2 adrenergic receptor (Rattus norvegicus) and write it down.
Response given: 6.47

Challenge: Send back Beta-2 adrenergic receptor (Rattus norvegicus) pKi of COc1ccccc1OCCNCC(O)c1ccc(C)c(S(N)(=O)=O)c1 (configuration not stated) only.
Response given: 7.88

Challenge: Please indicate recorded pKi of CC(C)=CCC[C@]1(C)[C@@H](CC=C(C)C)C[C@]2(CC=C(C)C)C(=O)C(CC=C(C)C)C(=O)[C@]1(C(=O)C(C)C)C2=O (some centres not stated) measured with Beta-2 adrenergic receptor (Rattus norvegicus).
Response given: < 5.00
